Overview of recorded Tmax for various molecules
assay: Tmax in mouse at 300 mg/kg, po; type: ADME, organism-based; set-up: dose 300 mg/kg, route oral; settings: in vivo
quantity-measured: Tmax (min)

{"smiles-repr": "CC(C)NC(=O)N1CCCN(c2ccc(CNC(=O)c3ccc([N+](=O)[O-])o3)cc2)CC1", "quantity-measured": "Tmax", "readout-unit": "min", "measurement": 30}
{"smiles-repr": "Cl.O=C(c1ccc([N+](=O)[O-])o1)N1CCc2cc(N3CCN(Cc4ccccc4)CC3)ccc2C1", "quantity-measured": "Tmax", "readout-unit": "min", "measurement": 30}
{"smiles-repr": "CN1CCN(c2ccc3c(c2)CCN(C(=O)c2ccc([N+](=O)[O-])o2)C3)CC1.Cl", "quantity-measured": "Tmax", "readout-unit": "min", "measurement": 30}
{"smiles-repr": "CC(C)NC(=O)N1CCN(c2ccc(CNC(=O)c3ccc([N+](=O)[O-])o3)cn2)CC1", "quantity-measured": "Tmax", "readout-unit": "min", "measurement": 150}
{"smiles-repr": "CCOC(=O)N1CCN(c2ccc(CNC(=O)c3ccc([N+](=O)[O-])o3)cn2)CC1", "quantity-measured": "Tmax", "readout-unit": "min", "measurement": 150}
{"smiles-repr": "CC(C)(C)OC(=O)N1CCN(c2ccc(CNC(=O)c3ccc([N+](=O)[O-])o3)cn2)CC1", "quantity-measured": "Tmax", "readout-unit": "min", "measurement": 30}
{"smiles-repr": "O=C(NCc1ccc(N2CCN(Cc3ccccc3)CC2)nc1)c1ccc([N+](=O)[O-])o1", "quantity-measured": "Tmax", "readout-unit": "min", "measurement": 30}
{"smiles-repr": "CCCNC(=O)N1CCN(c2ccc(CNC(=O)c3ccc([N+](=O)[O-])o3)cc2)CC1", "quantity-measured": "Tmax", "readout-unit": "min", "measurement": 150}
{"smiles-repr": "CC(C)(C)OC(=O)N1CCCN(c2ccc(CNC(=O)c3ccc([N+](=O)[O-])o3)cc2)CC1", "quantity-measured": "Tmax", "readout-unit": "min", "measurement": 30}

This collection of values is drawn from ChEMBL document CHEMBL1147683.
